System: CAMK1B;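 also: KINOMEscan kinase panel screen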
studyConditions: concentration: 1 μM, replicates: in singlicate; n = 1
In plain terms, low %Inh, meaning strictly below 4%, gives 1 (yes), and everything else gives 0 (no).

Solved cases below.
- smilesStructure: "Clc1cc(Cl)cc(Nc2ccnc(Nc3cc(Cl)cc(Cl)c3)n2)c1"
  categoryLabel: "1 (yes)"
- smilesStructure: "Cl.Oc1ccc(-c2nc(-c3ccccc3)[nH]c2-c2ccncc2)cc1"
  categoryLabel: "0 (no)"
- smilesStructure: "COc1cc2ncnc(Nc3ccc4nc(-c5ccccc5)[nH]c4c3)c2cc1OC.Cl"
  categoryLabel: "1 (yes)"
- smilesStructure: "COc1ccc(Nc2nccc(NCCNC(=O)Nc3ccccc3F)n2)cc1"
  categoryLabel: "0 (no)"
- smilesStructure: "COc1ccc(Nc2nccc(-c3cccc(NC(=O)c4cc5cc(F)ccc5[nH]4)c3)n2)cc1"
  categoryLabel: "1 (yes)"

Q: # TODO verify %Inh < 4% strictly for this compound: COc1ccc(C2=C(Nc3cccc(C(=O)O)c3)C(=O)NC2=O)cc1
Result: 0 (no)

Q: # TODO verify %Inh < 4% strictly for this compound: Cc1cccc(-c2nc(Nc3ccncc3)c3ccccc3n2)n1
Result: 1 (yes)

Q: # TODO verify %Inh < 4% strictly for this compound: CN(C)CCN(C)C(=O)c1cc(-c2ccncc2)c(-c2ccc(Cl)c(O)c2)o1.Cl.Cl
Result: 0 (no)
